Below, each entry is listed with its recorded protein stability index.
B1: FBXO39 (parent)
chain: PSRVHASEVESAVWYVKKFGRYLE

Variants of: B1
Assay: protein stability index of a GFP-peptide fusion (GPS, HEK-293T) (PSI 1-6); higher = more stable;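 note: lentivirally expressed fusions sorted by FACS into six bins by GFP to DsRed ratio, PSI derived from sequencing read proportions per bin multiplied by bin number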
Conditions: c terminus: a fixed tail appended
Would you mind answering with just the numeric figure?

Solved cases (2 shown):
>>> df
   mutant_label  experimental_result
0          R21H                 2.04
1           E8C                 2.27

Query: Can you share its protein stability index? I mean this variant: "K17E"
Reply: 2.35

Query: Similarly, "Y22M" ?
Reply: 2.1

Query: Record: "V9R"
Reply: 2.34

Query: Request: "K17H"
Reply: 2.1

Query: Consider next the variant "S2W" in the same way.
Reply: 1.89

Query: Can you check "E24S" next?
Reply: 1.83

Query: And "K18D" ?
Reply: 2.33

Query: Quick one: "K18T"
Reply: 1.73

Query: And what about the variant "R21Y" ?
Reply: 1.65

Sourced from the supplement of paper PMC10567573
